- system: OR10H3 (Homo sapiens) (UniProt O60404)
- Sequence (whole entry): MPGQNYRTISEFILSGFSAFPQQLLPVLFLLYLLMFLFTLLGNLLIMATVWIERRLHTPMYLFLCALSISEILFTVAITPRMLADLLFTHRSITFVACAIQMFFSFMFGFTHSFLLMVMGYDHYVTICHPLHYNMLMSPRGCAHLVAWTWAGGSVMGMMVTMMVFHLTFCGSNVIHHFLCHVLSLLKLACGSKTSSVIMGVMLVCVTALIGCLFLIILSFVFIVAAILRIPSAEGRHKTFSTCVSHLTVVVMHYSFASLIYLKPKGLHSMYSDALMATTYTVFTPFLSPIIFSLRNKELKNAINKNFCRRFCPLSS
- experimental.conditions: stereoisomer not certain
measurement.name: odorant receptor agonist call

Below, each entry is followed by its recorded odorant receptor agonist call result.
| molecule | odorant receptor agonist call |
| --- | --- |
| CC1CCCCCCCCCCCCC(=O)C1 (stereo unspecified) | inactive |
| CCCC(S)CCOC(C)=O (stereo unspecified) | inactive |
| CCC(S)C(C)CO (stereo unspecified) | inactive |
| CCC1OC(C)=C(O)C1=O (stereo unspecified) | inactive |
| CC1=C(O)C(=O)OC1C (stereo unspecified) | inactive |

Parameters: items (list). Returns: odorant receptor agonist call for each item.
1. CC(=O)c1c(C)c([N+](=O)[O-])c(C(C)(C)C)c([N+](=O)[O-])c1C
2. Cc1cnc(C)c(C)n1
3. CCCCCCC=CCCC=O
4. CC1=NC(C)C(C)S1 (stereo unspecified)
5. CCCCCC(=O)C(C)C(C)=O (stereo unspecified)
6. CCCCC(S)C(C)CO (stereo unspecified)

1: inactive; 2: inactive; 3: inactive; 4: inactive; 5: inactive; 6: inactive
